target: CYP1A1 (Homo sapiens, UniProt P04798); assay: Inhibition of human recombinant CYP1A1 using 7-ethoxyresorufin as substrate assessed as percent enzyme activity at 1 uM after 15 mins in presence of NADPH by EROD assay relative to control; assay type: ADME; parameters: scale not given: the % may be the effect or the level left; settings: recombinant CYP1A1, probe 7-ethoxyresorufin, read-out: Activity
Sequence (P04798 whole entry): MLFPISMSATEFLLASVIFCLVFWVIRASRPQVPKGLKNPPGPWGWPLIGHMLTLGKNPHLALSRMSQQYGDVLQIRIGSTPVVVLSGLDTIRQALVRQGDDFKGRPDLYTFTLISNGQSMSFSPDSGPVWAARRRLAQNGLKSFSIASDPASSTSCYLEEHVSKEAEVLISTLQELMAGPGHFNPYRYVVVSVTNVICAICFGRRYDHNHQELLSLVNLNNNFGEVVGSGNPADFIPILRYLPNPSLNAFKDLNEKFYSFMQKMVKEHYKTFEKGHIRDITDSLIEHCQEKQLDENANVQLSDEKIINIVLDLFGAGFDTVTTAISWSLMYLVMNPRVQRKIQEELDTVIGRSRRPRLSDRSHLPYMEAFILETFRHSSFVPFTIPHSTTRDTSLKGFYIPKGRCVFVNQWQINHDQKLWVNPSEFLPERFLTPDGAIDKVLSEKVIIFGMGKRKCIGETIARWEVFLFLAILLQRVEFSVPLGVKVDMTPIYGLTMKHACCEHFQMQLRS
As shown below, each of these compounds has a reported activity at 0.25 h, 1 µM value.
All answers are understood in %, so give the number only.

# annotated cases, reported activity at 0.25 h, 1 µM shown
CS(=O)(=O)O[C@H]1CCC[C@@H](c2cc(=O)c3ccc4ccccc4c3o2)C1 (relative stereo): 38.6
[N-]=[N+]=N[C@H]1CC[C@@H](c2cc(=O)c3ccc4ccccc4c3o2)CC1: 39.6

Prompt line: Determine from records and report activity at 0.25 h, 1 µM for [N-]=[N+]=NC1CCCC(c2cc(=O)c3ccc4ccccc4c3o2)C1 (mixture of isomers)
Response line: 36.1

Prompt line: Determine from records and report activity at 0.25 h, 1 µM for COc1ccc(-c2cc(=O)c3ccc4ccccc4c3o2)cc1
Response line: 4

Prompt line: Determine from records and report activity at 0.25 h, 1 µM for Nc1ccc(-c2cc(=O)c3ccc4ccccc4c3o2)cc1
Response line: 2.1

Prompt line: Determine from records and report activity at 0.25 h, 1 µM for O=c1cc(C2CC=CCC2)oc2c1ccc1ccccc12 (stereo not given)
Response line: 38.1

Prompt line: Determine from records and report activity at 0.25 h, 1 µM for O=c1cc(-c2cccc(S)c2)oc2c1ccc1ccccc12
Response line: 18.7

Prompt line: Determine from records and report activity at 0.25 h, 1 µM for O=c1cc([C@H]2C[C@H]3C=C[C@@H]2C3)oc2c1ccc1ccccc12
Response line: 43

Prompt line: Determine from records and report activity at 0.25 h, 1 µM for O=c1cc(C2CCCC(S)C2)oc2c1ccc1ccccc12 (mixture of isomers)
Response line: 0

Prompt line: Determine from records and report activity at 0.25 h, 1 µM for CC(=O)S[C@H]1CC[C@H](c2cc(=O)c3ccc4ccccc4c3o2)CC1
Response line: 1.1

Prompt line: Determine from records and report activity at 0.25 h, 1 µM for N[C@H]1CC[C@H](c2cc(=O)c3ccc4ccccc4c3o2)CC1
Response line: 84.2

Prompt line: Determine from records and report activity at 0.25 h, 1 µM for CN(C)C(=O)Sc1cccc(-c2cc(=O)c3ccc4ccccc4c3o2)c1
Response line: 3.8

Prompt line: Determine from records and report activity at 0.25 h, 1 µM for NC1CCCC(c2cc(=O)c3ccc4ccccc4c3o2)C1 (mixture of isomers)
Response line: 80.9

Prompt line: Determine from records and report activity at 0.25 h, 1 µM for CC(=O)S[C@H]1CC[C@@H](c2cc(=O)c3ccc4ccccc4c3o2)CC1
Response line: 3.8

Prompt line: Determine from records and report activity at 0.25 h, 1 µM for O=c1cc([C@H]2C[C@@H]3C=C[C@H]2C3)oc2c1ccc1ccccc12
Response line: 61

Prompt line: Determine from records and report activity at 0.25 h, 1 µM for O=c1cc([C@@H]2CCC[C@@H](O)C2)oc2c1ccc1ccccc12 (relative stereo)
Response line: 78

Prompt line: Determine from records and report activity at 0.25 h, 1 µM for O=c1cc(C2CCC(CO)CC2)oc2c1ccc1ccccc12 (mixture of isomers)
Response line: 85.9

Prompt line: Determine from records and report activity at 0.25 h, 1 µM for CN(C)C(=O)Sc1ccc(-c2cc(=O)c3ccc4ccccc4c3o2)cc1
Response line: 10.3

Prompt line: Determine from records and report activity at 0.25 h, 1 µM for CC(C)C1CCC(c2cc(=O)c3ccc4ccccc4c3o2)CC1 (mixture of isomers)
Response line: 48.3

Prompt line: Determine from records and report activity at 0.25 h, 1 µM for O=c1cc(C2=CCCCC2)oc2c1ccc1ccccc12
Response line: 3.2
